# measured.on: human αVβ6 (Homo sapiens, UniProt P06756+P18564)
# Sequence (P06756 31-992 limits assumed): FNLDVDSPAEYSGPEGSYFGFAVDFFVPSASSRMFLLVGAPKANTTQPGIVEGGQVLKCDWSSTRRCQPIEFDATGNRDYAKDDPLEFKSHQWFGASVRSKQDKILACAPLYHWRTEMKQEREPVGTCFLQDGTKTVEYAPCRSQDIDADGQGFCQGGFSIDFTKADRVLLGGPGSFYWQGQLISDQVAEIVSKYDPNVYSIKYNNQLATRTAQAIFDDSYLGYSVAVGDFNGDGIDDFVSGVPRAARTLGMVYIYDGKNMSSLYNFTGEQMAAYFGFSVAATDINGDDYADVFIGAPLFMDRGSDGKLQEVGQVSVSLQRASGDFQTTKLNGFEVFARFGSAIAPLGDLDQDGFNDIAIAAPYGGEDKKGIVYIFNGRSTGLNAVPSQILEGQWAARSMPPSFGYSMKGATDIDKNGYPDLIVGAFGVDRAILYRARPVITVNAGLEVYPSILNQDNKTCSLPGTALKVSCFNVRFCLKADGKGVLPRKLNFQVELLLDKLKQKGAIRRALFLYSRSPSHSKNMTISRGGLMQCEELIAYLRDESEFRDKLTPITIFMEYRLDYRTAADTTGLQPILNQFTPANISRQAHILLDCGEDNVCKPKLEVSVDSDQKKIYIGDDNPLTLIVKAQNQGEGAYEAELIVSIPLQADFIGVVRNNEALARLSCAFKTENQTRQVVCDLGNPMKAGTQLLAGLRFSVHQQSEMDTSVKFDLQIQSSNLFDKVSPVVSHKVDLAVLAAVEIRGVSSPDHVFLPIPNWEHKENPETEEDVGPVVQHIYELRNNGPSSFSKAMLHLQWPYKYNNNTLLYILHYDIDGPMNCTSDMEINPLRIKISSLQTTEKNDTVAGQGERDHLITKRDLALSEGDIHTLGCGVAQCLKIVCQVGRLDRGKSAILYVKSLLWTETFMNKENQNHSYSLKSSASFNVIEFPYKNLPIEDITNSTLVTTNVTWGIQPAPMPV
# Sequence (P18564 22-707 limits assumed): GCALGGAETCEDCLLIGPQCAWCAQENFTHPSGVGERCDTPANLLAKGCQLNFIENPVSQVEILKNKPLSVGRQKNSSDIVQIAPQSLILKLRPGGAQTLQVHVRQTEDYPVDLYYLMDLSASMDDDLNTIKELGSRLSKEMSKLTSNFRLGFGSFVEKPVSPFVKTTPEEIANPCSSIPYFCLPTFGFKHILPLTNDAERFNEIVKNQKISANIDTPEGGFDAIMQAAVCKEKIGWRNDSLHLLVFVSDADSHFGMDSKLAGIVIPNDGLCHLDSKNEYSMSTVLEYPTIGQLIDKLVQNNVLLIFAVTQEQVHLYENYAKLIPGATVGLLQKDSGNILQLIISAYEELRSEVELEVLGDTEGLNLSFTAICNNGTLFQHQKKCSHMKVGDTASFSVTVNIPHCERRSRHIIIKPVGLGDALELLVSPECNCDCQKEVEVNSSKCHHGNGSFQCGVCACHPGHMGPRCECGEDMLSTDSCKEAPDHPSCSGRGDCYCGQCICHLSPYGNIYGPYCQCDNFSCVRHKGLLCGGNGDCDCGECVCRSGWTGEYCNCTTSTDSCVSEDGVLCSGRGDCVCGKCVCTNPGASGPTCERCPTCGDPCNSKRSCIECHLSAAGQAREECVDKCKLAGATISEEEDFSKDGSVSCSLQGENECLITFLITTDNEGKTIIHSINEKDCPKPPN
# experimental.protocol: human αVβ6 HTRF binding assay
# condition.details: recombinant human αVβ6 integrin, FITC-conjugated fibronectin
reported.metric: IC50 (nM)

a = Cc1cc(C)n(C(CC(=O)O)c2nc(CCCc3ccc4c(n3)NCCC4)cs2)n1 (single isomer, unassigned) [Example 163]
b = COc1ccc(C(CC(=O)O)c2nc(CCCc3ccc4c(n3)NCCC4)cs2)cc1OC (single isomer, unassigned) [Example 141]
Query: Which of these two has the smaller recorded IC50: a or b ? Please reply using the label of the selected record.
Response: b
(b: 2.9 nM, a: 220 nM)

====

# measured.on: human αVβ5 (Homo sapiens, UniProt P06756+P18084)
# Sequence (P18084 24-719 limits assumed, one chain of several): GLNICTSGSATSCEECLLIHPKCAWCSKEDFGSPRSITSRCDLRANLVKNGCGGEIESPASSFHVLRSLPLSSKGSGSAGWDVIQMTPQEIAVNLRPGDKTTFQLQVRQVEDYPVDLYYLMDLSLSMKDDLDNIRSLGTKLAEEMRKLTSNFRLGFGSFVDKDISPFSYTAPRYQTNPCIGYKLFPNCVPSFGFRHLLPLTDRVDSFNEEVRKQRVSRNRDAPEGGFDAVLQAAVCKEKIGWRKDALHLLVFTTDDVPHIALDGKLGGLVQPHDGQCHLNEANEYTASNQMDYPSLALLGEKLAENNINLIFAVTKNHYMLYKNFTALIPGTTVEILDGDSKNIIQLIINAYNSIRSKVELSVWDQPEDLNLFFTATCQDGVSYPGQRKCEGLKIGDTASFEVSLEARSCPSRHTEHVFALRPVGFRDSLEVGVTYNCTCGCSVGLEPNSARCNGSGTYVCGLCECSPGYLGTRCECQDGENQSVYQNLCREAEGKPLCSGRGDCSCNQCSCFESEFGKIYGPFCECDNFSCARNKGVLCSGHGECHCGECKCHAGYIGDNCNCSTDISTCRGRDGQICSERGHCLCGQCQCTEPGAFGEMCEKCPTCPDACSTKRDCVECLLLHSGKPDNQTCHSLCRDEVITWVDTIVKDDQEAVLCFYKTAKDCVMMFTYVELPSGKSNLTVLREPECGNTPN
# experimental.protocol: human αVβ5 HTRF binding assay
pIC50: −log10 of the molar value.
reported.metric: pIC50

Use these answered entries as a reference point.
COc1ccc(C(CC(=O)O)c2ncc(CCCCc3ccc4c(n3)NCCC4)s2)cc1F (single isomer, unassigned) [Example 40]: 8.00
COc1ccc(C(CC(=O)O)c2nc(CCCCc3ccc4c(n3)NCCC4)cs2)cn1 (single isomer, unassigned) [Example 14]: 7.96
O=C(O)CC(c1cnc2ccccc2c1)n1ccc(CCCc2ccc3c(n2)NCCC3)n1 (racemic) [Example 29]: 8.19

a = CCOc1ncc(C(CC(=O)O)n2ccc(CCCc3ccc4c(n3)NCCC4)n2)cn1 (racemic) [Example 27]
b = COc1ccc(C(CC(=O)O)n2ccc(OCCCc3ccc4c(n3)NCCC4)n2)cn1 (racemic) [Example 48]
Query: I'd appreciate it if you could identify which of a and b has the greater pIC50. Lab log: write the label of the selected item as the result.
Response: a
(a: 9.12, b: 8.57)

P = COc1cncc(C(CC(=O)O)n2ccc(CCCc3ccc4c(n3)NCCC4)n2)c1 (single isomer, unassigned) [Example 65]
Q = O=C(O)CC(c1ccc2c(c1)CCO2)n1ccc(CCCc2ccc3c(n2)NCCC3)n1 (racemic) [Example 30]
Query: Consider P and Q . Which of these has its pIC50 at a higher number? Answer format: the label of the selected item.
Response: P

====

# measured.on: human αVβ6 (Homo sapiens, UniProt P06756+P18564)
# experimental.protocol: human αVβ6 HTRF binding assay
# condition.details: recombinant human αVβ6 integrin, FITC-conjugated fibronectin
pIC50: −log10 of the molar value.
reported.metric: pIC50

Use the examples below as a reference point.
Cc1ncc(C(CC(=O)O)c2nc(CCCc3ccc4c(n3)NCCC4)cs2)cn1 (single isomer, unassigned) [Example 148]: 8.22
COc1ccc(C(CC(=O)O)c2ncc(CCCCc3ccc4c(n3)NCCC4)s2)cc1F (single isomer, unassigned) [Example 41]: 8.23
Cc1cc(C)c(S(=O)(=O)NC(Cc2cnn(CCCc3ccc4c(n3)NCCC4)c2)C(=O)O)c(C)c1 (racemic): 6.40
Cc1ncc([C@@H](CC(=O)O)n2ccc(CCCc3ccc4c(n3)NCCC4)n2)cn1: 6.05
COc1ccc(C(CC(=O)O)c2nc(CCCc3ccc4c(n3)NCCC4)co2)cc1F (single isomer, unassigned) [Example 179]: 7.18

A = O=C(O)CCCNc1cc(C(CC(=O)O)n2ccc(CCCc3ccc4c(n3)NCCC4)n2)ccn1 (racemic)
B = O=C(O)CC(c1cccc(N2CCOCC2)c1)n1ccc(CCCc2ccc3c(n2)NCCC3)n1 (racemic)
Query: Compare A and B by numeric pIC50 and name the larger one. Please identify the chosen entry by its label.
Response: B
(B: 8.37, A: 7.26)
